- Tested on: DU-145 prostate
- experiment summary: NCI tumour cell line growth inhibition, 48 h
endpoint name: TGI

Example entries and their recorded answers appear below.
INSERT INTO results (compound, observed_measurement) VALUES
  ('OCC(O)C(O)C(C=NNc1ncnc2ccc(Br)cc12)=NNc1ncnc2ccc(Br)cc12 (stereo unspecified)', '9.82 µM'),
  ('CN1C(=O)C(C)(C)Oc2c(-c3cn(C)c(=O)c4[nH]ccc34)cc(S(C)(=O)=O)cc21', '> 100 µM'),
  ('NS(=O)(=O)c1ccc(N=Nc2c(=O)[nH]c3ccc4[nH]cccc4c23)cc1', '> 7.96 µM'),
  ('N#CC1C(=O)NC(=O)C(C#N)C1c1ccc(Cl)c(Cl)c1 (stereo unspecified)', '> 100 µM'),
  ('O=[N+]([O-])c1ccc2nc(=S)[nH]n2c1', '> 100 µM');

For reference, reported TGI for O=Cc1ccc2[nH]c(=O)oc2c1 stands at > 100 µM

For reference, reported TGI for S=c1sscc1N1CCSc2ssc(=S)c21 stands at 81.6 µM

For reference, reported TGI for CN1C(=O)C(O)C[C@@H]1c1ccc(F)cc1 (stereo partly specified) stands at > 100 µM

* * *

- System: NCI-H522 lung
- experiment summary: NCI tumour cell line growth inhibition, 48 h
endpoint name: TGI

INSERT INTO assay_data (compound, target_or_system, endpoint_name, observed_measurement) VALUES
  ('Nc1ncnc2c1ncn2C1OC(C(=O)OCCO)C(O)C1O (stereo not given)', 'NCI-H522 lung', 'TGI', '> 100 µM'),
  ('COc1cc(C2SC(N)=Nc3c2c(C)nn3C(=O)c2ccc(Cl)cc2)ccc1O (stereo not given)', 'NCI-H522 lung', 'TGI', '> 10 µM'),
  ('Nc1nc(Cl)c2ncn(Cc3ccc(-c4ccc(CCl)cc4)cc3)c2n1', 'NCI-H522 lung', 'TGI', '> 100 µM'),
  ('CC(=O)Nc1ccc(OCC(O)CO)cc1 (stereo not given)', 'NCI-H522 lung', 'TGI', '> 100 µM');

For reference, reported TGI for C[Si](C)(C)C#CCOC=C1CC1 stands at > 100 µM

* * *

Readings of TGI for the listed molecules
- Test system: TK-10 renal
- experiment summary: NCI tumour cell line growth inhibition, 48 h

For reference, reported TGI for CC(=O)O[C@@H]1CN(S(=O)(=O)c2ccc(C)cc2)C[C@@H]1C1CCCCC1 stands at 41.4 µM

For reference, reported TGI for Nc1nc(Cl)c2ncn(Cc3ccc(-c4ccc(CCl)cc4)cc3)c2n1 stands at 19.8 µM

For reference, reported TGI for COc1ccc(CNC(=O)c2c(C)n([O-])c3cc(F)c(F)cc3[n+]2=O)cc1 stands at 27.1 µM

* * *

Readings of TGI for the listed compounds
- Tested on: COLO 205 colon
- experiment summary: NCI tumour cell line growth inhibition, 48 h

INSERT INTO measurements (compound, endpoint_name, observed_measurement) VALUES
  ('CCCC(=O)OC1=C(c2ccccc2)Sc2ccccc2-n2cccc21', 'TGI', '> 10 µM');

For reference, reported TGI for NC(=S)N=Nc1c(O)[nH]c2ccccc12 stands at > 1000 µM

For reference, reported TGI for C#CC1(O)CC(c2ccccc2)N(C)C(c2ccccc2)C1 (stereo not drawn) stands at > 100 µM

* * *

- System: MOLT-4 leukemia
- experiment summary: NCI tumour cell line growth inhibition, 48 h
Where a SMILES comes first, the peptide text is derived from it. The star is where a group is joined. Fmoc = O=C(OCC1c2ccccc2-c2ccccc21)*; Boc = CC(C)(C)OC(=O)*
Readings of log10(TGI) for the listed molecules
Scale type: logarithmic (base 10). Underlying TGI unit: µM.

Example entries and their recorded answers appear below.
INSERT INTO results (molecule, target_or_system, endpoint_name, observed_measurement) VALUES
  ('CC(=O)Nc1cc(CN2CCCCC2)c(O)c2ncccc12', 'MOLT-4 leukemia', 'log10(TGI)', 1.63),
  ('CC(=O)OC[C@]12CCC3[C@@]4(C)CCCC(C)(C)C4CC[C@@]3(C)C1CC(C1=CC(=O)OC1O)O2 (stereo partly specified)', 'MOLT-4 leukemia', 'log10(TGI)', -0.20),
  ('CC(=O)O[C@@H]1CN(S(=O)(=O)c2ccc(C)cc2)C[C@@H]1C1CCCCC1', 'MOLT-4 leukemia', 'log10(TGI)', 1.81),
  ('NC(N)=N/N=C/c1c(-c2ccc(Cl)cc2)nc2n1CCS2', 'MOLT-4 leukemia', 'log10(TGI)', 1.24),
  ('CC(C)(C)OC(=O)NCCCCC(NC(=O)C(Cc1c[nH]c2ccccc12)NC(=O)OCC1c2ccccc2-c2ccccc21)C(=O)O (stereo unspecified) (Fmoc-Trp-Lys(Boc)-OH; configuration not given here)', 'MOLT-4 leukemia', 'log10(TGI)', 1.68);

For reference, reported log10(TGI) for CCC12C=CCN3CCC4(C(=C(C(=O)OC)C1)Nc1ccccc14)[C@H]32 (stereo partly specified) stands at 1.97

* * *

Readings of TGI for the listed molecules
- Tested on: CAKI-1 renal
- experiment summary: NCI tumour cell line growth inhibition, 48 h

For reference, reported TGI for C=[N+](CNC(=O)CNC(=O)C(Cc1ccccc1)NC(=O)OC(C)(C)C)C(=O)CNC(=O)C(Cc1ccccc1)NC(=O)OC(C)(C)C (stereo unspecified) stands at > 100 µM

For reference, reported TGI for NCCSc1nc(N)c2ncn(C3OC(CO)C(O)C3O)c2n1 (stereo unspecified) stands at > 100 µM

For reference, reported TGI for O=C(CC(C(=O)c1cccs1)c1ccccc1)c1ccccc1O (stereo unspecified) stands at > 67.3 µM

For reference, reported TGI for O=Cc1ccc2[nH]c(=O)oc2c1 stands at > 100 µM

For reference, reported TGI for Cc1cccc(/C=C2\CCCCCC2=O)c1 stands at > 100 µM

For reference, reported TGI for COc1cc(C2SC(N)=Nc3c2c(C)nn3C(=O)c2ccc(Cl)cc2)ccc1O (stereo unspecified) stands at > 10 µM

* * *

- System: HT29 colon
- experiment summary: NCI tumour cell line growth inhibition, 48 h
Readings of TGI for the listed compounds

Example entries and their recorded answers appear below.
INSERT INTO measurements (smiles_text, target_or_system, observed_measurement) VALUES
  ('C[C@H](CCCOS(C)(=O)=O)[C@H]1CC[C@H]2[C@@H]3CC[C@@H]4C[C@H](OS(C)(=O)=O)CC[C@]4(C)[C@H]3CC[C@]12C', 'HT29 colon', '> 2500 µM'),
  ('CC(=O)Nc1nc(C)c(-c2cc3c(c(S(C)(=O)=O)c2)C(=O)N([C@@H](C)C2CC2)C3)s1', 'HT29 colon', '> 100 µM'),
  ('NC(=O)N/N=C/c1ccccc1O', 'HT29 colon', '> 100 µM');

With those in mind, consider the next compound.
For reference, reported TGI for O=c1cc(-c2cccc(Br)c2)[nH]c2cc3c(cc12)OCO3 stands at > 83.3 µM

* * *

- System: HOP-92 NSCLC
- experiment summary: NCI tumour cell line growth inhibition, 48 h
Readings of TGI for the listed molecules

Value (TGI, HOP-92 NSCLC) for record CCN(CC)c1ccc2cc(-c3csc(-c4ccc(N(C)C)cc4)n3)c(=O)oc2c1 = > 100 µM

Value (TGI, HOP-92 NSCLC) for record O=C1CC2OCC=C3CN4CCC56c7ccccc7N1C5C2C3CC46 (stereo unspecified) (tested in a mixture with another compound) = > 50 µg/mL

* * *

- Tested on: OVCAR-5 ovarian
- experiment summary: NCI tumour cell line growth inhibition, 48 h
Readings of TGI for the listed compounds

Example entries and their recorded answers appear below.
INSERT INTO assay_data (compound, endpoint_name, observed_measurement) VALUES
  ('Cc1cccc2c(=O)c3c(O)cc4c(c3n(C)c12)C=CC(C)(C)O4', 'TGI', '> 100 µM'),
  ('N#CCCn1c(CCC(=O)Nc2ccc(Cl)cc2Cl)n[nH]c1=S', 'TGI', '> 100 µM'),
  ('CC(=O)N1CCN(C=S)CC1', 'TGI', '> 100 µM'),
  ('CCN1CCC(O)(/C=C/c2ccc(Cl)cc2)C(C(=O)/C=C/c2ccc(Cl)cc2)C1 (stereo not given)', 'TGI', '> 100 µM'),
  ('C#Cc1ccccc1N1C(=O)C=CC1=O', 'TGI', '> 100 µM'),
  ('CCc1cccc(CC)c1NC(=O)C1=CNC(C)=C(C(=O)Nc2c(CC)cccc2CC)C1c1ccc(O)c(OC)c1 (stereo not given)', 'TGI', '> 100 µM'),
  ('Cc1ccc(S(=O)(=O)NC(=O)NCC(=O)O)cc1', 'TGI', '> 100 µM'),
  ('CC(C)=C=CC(C)(C)NS(=O)(=O)NC(C)(C)C=C=C(C)C', 'TGI', '> 100 µM');

For reference, reported TGI for CCCC(CCC)C(=O)O stands at > 20000 µM

For reference, reported TGI for O=Cc1ccc2[nH]c(=O)oc2c1 stands at > 100 µM
